- System: MOLT-4
- TEST_DESCRIPTION: Cytotoxic activity against MOLT-4 Leukemia cell line
- Format: functional
- CONDITION_DETAILS: Homo sapiens
ASSAY_METRIC: GI50 (µM)
Give the number; µM is assumed, so skip it.

Field: example entries. Status: answers known.
Input: // GI50 lookup, key: COc1ccc(NCc2cnc3nc(N)nc(N)c3c2C)c(OC)c1
Output: 1.22

Input: // GI50 lookup, key: COc1ccc(OC)c(N(C)Cc2cnc3nc(N)nc(N)c3c2C)c1
Output: 3.16

Input: // GI50 lookup, key: COc1cc(OC)cc(N(C)Cc2cnc3nc(N)nc(N)c3c2C)c1
Output: 0.742

Moving on to the next compound.
Input: // GI50 lookup, key: COc1ccc(NCc2cnc3nc(N)nc(N)c3c2C)c2ccccc12
Output: 0.0911

###

Catalogue of GI50 readings, one per entry.
- Test system: K562
- TEST_DESCRIPTION: Cytotoxic activity against K-562 Leukemia cell line
- Assay type: functional
- CONDITION_DETAILS: Homo sapiens
Give the number; nM is assumed, so skip it.

Field: example entries. Status: answers known.
Input: // GI50 lookup, key: COc1cc(OC)cc(N(C)Cc2cnc3nc(N)nc(N)c3c2C)c1
Output: 209

Input: // GI50 lookup, key: COc1ccc(OC)c(N(C)Cc2cnc3nc(N)nc(N)c3c2C)c1
Output: 499

Input: // GI50 lookup, key: COc1ccc(NCc2cnc3nc(N)nc(N)c3c2C)c2ccccc12
Output: 16.1

Moving on to the next compound.
Input: // GI50 lookup, key: COc1ccc(NCc2cnc3nc(N)nc(N)c3c2C)c(OC)c1
Output: 305

###

- ASSAY_SYSTEM: Dihydrofolate reductase (Rattus norvegicus, UniProt Q920D2)
- Sequence (Q920D2 whole entry): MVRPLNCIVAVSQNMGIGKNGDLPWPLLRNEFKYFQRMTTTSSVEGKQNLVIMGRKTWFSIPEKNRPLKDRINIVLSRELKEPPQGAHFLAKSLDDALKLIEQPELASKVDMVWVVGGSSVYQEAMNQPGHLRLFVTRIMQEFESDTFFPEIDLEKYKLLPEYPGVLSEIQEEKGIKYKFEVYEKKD
Please assign Not met whenever IC50 is at or above 40 nM, and Met whenever it is below.

Input: Please let me know if COc1cc(NCc2cnc3nc(N)nc(N)c3c2C)cc(OC)c1 shows IC50 below 40 nM.
Output: Not met

Input: Please let me know if COc1ccc(OC)c(N(C)Cc2cnc3nc(N)nc(N)c3c2C)c1 shows IC50 below 40 nM.
Output: Not met

New cases:
Input: Please let me know if Cc1c(CNc2cccc3ccccc23)cnc2nc(N)nc(N)c12 shows IC50 below 40 nM.
Output: Met

Input: Please let me know if CCOc1ccc(OCC)c(NCc2cnc3nc(N)nc(N)c3c2C)c1 shows IC50 below 40 nM.
Output: Met

Input: Please let me know if COc1cc(OC)cc(N(C)Cc2cnc3nc(N)nc(N)c3c2C)c1 shows IC50 below 40 nM.
Output: Not met

Input: Please let me know if COc1ccc(NCc2cnc3nc(N)nc(N)c3c2C)c(OC)c1 shows IC50 below 40 nM.
Output: Not met

Input: Please let me know if COc1ccc(N(C)Cc2cnc3nc(N)nc(N)c3c2C)c(OC)c1 shows IC50 below 40 nM.
Output: Not met

Input: Please let me know if COc1ccc(N(C)Cc2cnc3nc(N)nc(N)c3c2C)cc1OC shows IC50 below 40 nM.
Output: Not met

Input: Please let me know if COc1ccc(OC)c(NCc2cnc3nc(N)nc(N)c3c2C)c1 shows IC50 below 40 nM.
Output: Not met

Input: Please let me know if CCOc1ccc(OCC)c(N(C)Cc2cnc3nc(N)nc(N)c3c2C)c1 shows IC50 below 40 nM.
Output: Not met

Input: Please let me know if COc1ccc(NCc2cnc3nc(N)nc(N)c3c2C)c2ccccc12 shows IC50 below 40 nM.
Output: Not met

Input: Please let me know if COc1ccc(NCc2cnc3nc(N)nc(N)c3c2C)cc1OC shows IC50 below 40 nM.
Output: Met

###

Target protein (sequence): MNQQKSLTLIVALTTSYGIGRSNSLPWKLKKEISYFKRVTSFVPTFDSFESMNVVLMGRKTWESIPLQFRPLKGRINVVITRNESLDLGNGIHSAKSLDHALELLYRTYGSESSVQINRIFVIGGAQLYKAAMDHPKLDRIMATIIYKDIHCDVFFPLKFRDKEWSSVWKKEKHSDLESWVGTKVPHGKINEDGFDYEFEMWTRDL
pIC50: −log10 of the molar value.
Respond with Criterion met for pIC50 values of 7 and above, Criterion not met for values below.

Input: Is pIC50 at least 7? Consider COc1cc(N(Cc2cnc3nc(N)nc(N)c3c2C)C(C)C)cc(OC)c1OC
Output: Criterion met

Input: Is pIC50 at least 7? Consider COc1ccc(NCc2cnc3nc(N)nc(N)c3c2C)c(OC)c1
Output: Criterion not met

Input: Is pIC50 at least 7? Consider COc1ccc(OC)c(N(C)Cc2cnc3nc(N)nc(N)c3c2C)c1
Output: Criterion not met

Input: Is pIC50 at least 7? Consider Cc1c(CNc2cccc3ccccc23)cnc2nc(N)nc(N)c12
Output: Criterion not met

Input: Is pIC50 at least 7? Consider COc1ccc(N(C)Cc2cnc3nc(N)nc(N)c3c2C)c(OC)c1
Output: Criterion not met

Input: Is pIC50 at least 7? Consider C#CCN(Cc1cnc2nc(N)nc(N)c2c1C)c1cc(OC)c(OC)c(OC)c1
Output: Criterion met

New cases:
Input: Is pIC50 at least 7? Consider COc1ccc(NCc2cnc3nc(N)nc(N)c3c2C)c2ccccc12
Output: Criterion met

Input: Is pIC50 at least 7? Consider COc1ccc(N(C)Cc2cnc3nc(N)nc(N)c3c2C)cc1OC
Output: Criterion not met

Input: Is pIC50 at least 7? Consider COc1cc(NCc2cnc3nc(N)nc(N)c3c2C)cc(OC)c1
Output: Criterion met

Input: Is pIC50 at least 7? Consider COc1ccc(OC)c(NCc2cnc3nc(N)nc(N)c3c2C)c1
Output: Criterion met

###

- TEST_DESCRIPTION: Ratio of the inhibitory concentrations against Toxoplasma gondii […] and Toxoplasma gondii DHFR.
Please assign criterion not met whenever Ratio is at or above 40, and criterion met whenever it is below.

Input: Please let me know if COc1ccc(N(C)Cc2cnc3nc(N)nc(N)c3c2C)c(OC)c1 shows Ratio below 40.
Output: criterion not met

Input: Please let me know if Cc1c(CNc2cccc3ccccc23)cnc2nc(N)nc(N)c12 shows Ratio below 40.
Output: criterion met

Input: Please let me know if COc1cc(NCc2cnc3nc(N)nc(N)c3c2C)cc(OC)c1 shows Ratio below 40.
Output: criterion not met

Input: Please let me know if COc1ccc(OC)c(N(C)Cc2cnc3nc(N)nc(N)c3c2C)c1 shows Ratio below 40.
Output: criterion met

Input: Please let me know if COc1ccc(OC)c(NCc2cnc3nc(N)nc(N)c3c2C)c1 shows Ratio below 40.
Output: criterion not met

New cases:
Input: Please let me know if CCOc1ccc(OCC)c(NCc2cnc3nc(N)nc(N)c3c2C)c1 shows Ratio below 40.
Output: criterion met

Input: Please let me know if COc1ccc(NCc2cnc3nc(N)nc(N)c3c2C)c2ccccc12 shows Ratio below 40.
Output: criterion met

###

- ASSAY_SYSTEM: Dihydrofolate reductase (Lactobacillus casei)
- Sequence (P00381 whole entry): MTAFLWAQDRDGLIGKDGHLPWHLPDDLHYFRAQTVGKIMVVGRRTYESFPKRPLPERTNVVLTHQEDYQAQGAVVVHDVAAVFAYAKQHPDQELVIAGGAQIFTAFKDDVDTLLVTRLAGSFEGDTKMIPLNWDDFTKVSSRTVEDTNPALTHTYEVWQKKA
Catalogue of IC50 readings, one per entry.
Give the number; nM is assumed, so skip it.

Field: example entries. Status: answers known.
Input: // IC50 lookup, key: COc1ccc(OC)c(NCc2cnc3nc(N)nc(N)c3c2C)c1
Output: 39

Input: // IC50 lookup, key: COc1cc(N(Cc2cnc3nc(N)nc(N)c3c2C)C(C)C)cc(OC)c1OC
Output: 210

New cases:
Input: // IC50 lookup, key: COc1cc(NCc2ccc3nc(N)nc(N)c3c2C)cc(OC)c1OC [TRIMETREXATE]
Output: 27

###

- ASSAY_SYSTEM: Bifunctional dihydrofolate reductase-thymidylate synthase (Toxoplasma gondii)
- Sequence (Q07422 whole entry): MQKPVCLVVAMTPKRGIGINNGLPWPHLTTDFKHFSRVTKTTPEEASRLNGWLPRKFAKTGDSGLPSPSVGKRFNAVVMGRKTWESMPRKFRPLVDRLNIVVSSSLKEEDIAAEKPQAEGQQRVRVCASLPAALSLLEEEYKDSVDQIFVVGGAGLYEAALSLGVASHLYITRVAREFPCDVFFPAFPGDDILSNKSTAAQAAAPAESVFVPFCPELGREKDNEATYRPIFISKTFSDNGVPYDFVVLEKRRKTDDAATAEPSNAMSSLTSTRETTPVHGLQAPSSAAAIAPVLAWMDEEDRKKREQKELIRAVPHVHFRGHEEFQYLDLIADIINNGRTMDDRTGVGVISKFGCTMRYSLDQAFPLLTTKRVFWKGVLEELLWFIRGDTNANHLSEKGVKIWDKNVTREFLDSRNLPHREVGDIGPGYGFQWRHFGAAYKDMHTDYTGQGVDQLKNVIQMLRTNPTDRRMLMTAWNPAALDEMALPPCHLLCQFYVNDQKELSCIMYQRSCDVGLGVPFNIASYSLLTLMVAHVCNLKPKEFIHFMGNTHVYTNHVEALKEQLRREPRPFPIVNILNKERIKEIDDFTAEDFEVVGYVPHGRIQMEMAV
Please map values of IC50 to classes as shown: lower bin (below 10 nM), middle bin (10 nM to below 40 nM), upper bin (40 nM or more)

# count of solved cases: 6
Input: Using the reported IC50, which band applies to CCOc1ccc(OCC)c(NCc2cnc3nc(N)nc(N)c3c2C)c1 ?
Output: middle bin

Input: Using the reported IC50, which band applies to COc1cc(N(Cc2cnc3nc(N)nc(N)c3c2C)C(C)C)cc(OC)c1OC ?
Output: lower bin

Input: Using the reported IC50, which band applies to COc1ccc(NCc2cnc3nc(N)nc(N)c3c2C)c2ccccc12 ?
Output: middle bin

Input: Using the reported IC50, which band applies to CCOc1ccc(OCC)c(N(C)Cc2cnc3nc(N)nc(N)c3c2C)c1 ?
Output: upper bin

Input: Using the reported IC50, which band applies to COc1ccc(OC)c(NCc2cnc3nc(N)nc(N)c3c2C)c1 ?
Output: middle bin

Input: Using the reported IC50, which band applies to C#CCN(Cc1cnc2nc(N)nc(N)c2c1C)c1cc(OC)c(OC)c(OC)c1 ?
Output: lower bin

Let us examine a further case.
Input: Using the reported IC50, which band applies to COc1ccc(NCc2cnc3nc(N)nc(N)c3c2C)c(OC)c1 ?
Output: upper bin
